- Tested on: SNB-75
- test: NCI tumour cell line growth inhibition, 48 h
Activity calls are given as the source filed them. No stated cut-off is given here; in the data, active = GI50 up to about 1.1 µM and inactive = higher.
measured property: GI50

Recorded GI50 (molecule COC(=O)c1sc(=O)n(-c2ccccc2)c1SCc1ccccc1 ): > 100 µM (inactive)

The reported GI50 of the molecule CC(=O)NNc1nc(C)c(C(/C=C/c2ccc(Cl)cc2)=N\NS(=O)(=O)c2ccc(C)cc2)s1 was > 100 µM (inactive)

So for CCOP(=O)(OCC)C(Nc1ccc(C(=O)O)cc1)c1ccc(C(Nc2ccc(C(=O)O)cc2)P(=O)(OCC)OCC)cc1 (stereo unspecified) , the logged GI50 turned out to be > 100 µM (inactive)

Reported GI50 ( CN1CCOC1c1ccccc1O (stereo unspecified) ) = 85.3 µM (inactive)

Documented GI50 of CN1C(=S)CSc2ccccc21 : 42.9 µM (inactive)

# GI50 of CCc1ccc(COC(=O)C2=C(C)NC(C)=C(C(=O)OCc3ccc(CC)cn3)C2C2=COCCO2)nc1 = 14.4 µM (inactive)

The reported GI50 of the molecule CC(C)CCCC(C)[C@H]1CCC(C2C[C@@H](O)[C@@H]3CC(O)[C@@H](O)C[C@]3(CO)C2=O)[C@]1(C)CCO (stereo partly specified) was 20.4 µM (inactive)

Given item COc1cc(C2C3=C(N=C4SC(C(C)=O)=C(C)N42)c2ccccc2CC3)cc(OC)c1OC (stereo unspecified) , the value recorded as its GI50 is 53.7 µM (inactive)

Form: molecule = COc1cc(C/C=C/c2ccccc2)c(OC)cc1O ; GI50 = 24.6 µM (inactive)

In plain terms, O=C1O/C(=C/c2ccccc2)C(c2ccccc2)=C1O has a documented GI50 of 67.3 µM (inactive)

molecule Cc1ccccc1C1=[N+]([O-])c2ccc(Cl)cc2C1=O , GI50 observed: 19.8 µM (inactive)

GI50 reading for Oc1nc(-c2ccc3ccccc3c2)nc2ccccc12 : 4.53 µM (inactive)

Notebook: C/C(=N/NC(=S)Nc1ccc([N+](=O)[O-])cc1)c1cccc(/C(C)=N\NC(=S)Nc2ccc([N+](=O)[O-])cc2)n1 , GI50 read as 3.3 µM (inactive)

What the record says about Cc1c(S(=O)(=O)c2ccccc2)c(N)n(CCN(C)C)c1C : GI50 is > 100 µM (inactive)

Kindly note the recorded GI50 for O=C1c2ccccc2-n2nnnc2C2CSCN12 (stereo unspecified) , which is > 100 µM (inactive)

# GI50 (molecule: CC(=NNC(=S)Nc1ccccc1C)c1cccc(C(C)=NNC(=S)Nc2ccccc2C)n1 ) is 2.36 µM (inactive)

Looking up Cc1c(CCO)c(O)n2c(nc3ccccc32)c1C#N , I found its GI50 recorded as > 100 µM (inactive)

// GI50 lookup, molecule = COc1cc2nc(-c3cccs3)oc(=O)c2cc1OC , result: > 100 µM (inactive)

###

- System: CAKI-1
- test: NCI tumour cell line growth inhibition, 48 h
Active and inactive are the calls of the source. No stated cut-off is given here; in the data, active = GI50 up to about 1.1 µM and inactive = higher.
Hi! Could you answer with just one of these? active, inactive

Worked examples follow.
# compound, answer label
records = [
    ("O=c1cc(-c2ccccc2F)[nH]c2ccc(N3CCCC3)cc12", "active"),
    ("CC(C)(C)OC(=O)CC(NC(=O)OC(C)(C)C)C(=O)NC(C(=O)O)C(O)c1ccccc1 (stereo not drawn)", "inactive"),
    ("COc1ccc(C2=C(OC(C)=O)c3cccn3-c3ccccc3S2)cc1", "inactive"),
    ("O=C(N/C(=C/c1ccc(Cl)cc1)c1nc2ccccc2c(=O)n1Nc1ccc([N+](=O)[O-])cc1[N+](=O)[O-])c1ccccc1", "inactive"),
    ("CC1(C)NC(C)(C)/C(=N\\O)C(=NO)/C1=N/O", "inactive"),
    ("COS(=O)CCOC(=O)c1ccccc1SSc1ccccc1C(=O)OCCS(=O)OC (stereo not drawn)", "inactive"),
    ("COc1ccc(C(SCCO)(c2ccccc2)c2ccc(OC)cc2)cc1", "inactive"),
    ("COc1ccc(C(=O)C(C(=O)C(=O)NC2C3CC4CC(C3)CC2C4)c2ccc(OC)cc2)cc1 (stereo not drawn)", "inactive"),
    ("COC(=O)[C@H](Cc1ccccc1)NP(=O)(O)OCC1C=CC(n2cc(C)c(=O)[nH]c2=O)O1 (stereo partly drawn)", "inactive"),
    ("O=[N+]([O-])C1C2C=CC(C2)[C@H]1c1ccc(Cl)cc1Cl (stereo partly drawn)", "inactive"),
]

**Query** Dear colleague, could you share the recorded outcome for O=[N+]([O-])c1ccc(C(Cl)C(Cl)c2ccc(C(Cl)C(Cl)c3ccc([N+](=O)[O-])cc3[N+](=O)[O-])cc2)c([N+](=O)[O-])c1 (stereo not drawn) when you have a moment?
**Result** inactive

**Query** Entry C/C=C/C[C@@H](C)C(=O)C1C(=O)N[C@@H](C(C)C)C(=O)N(C)CC(=O)N(C)[C@@H](CC(C)C)C(=O)N[C@@H](C(C)C)C(=O)N(C)[C@@H](CC(C)C)C(=O)N[C@@H](C)C(=O)N[C@@H](C)C(=O)N(C)[C@@H](CC(C)C)C(=O)N(C)[C@@H](CC(C)C)C(=O)N(C)[C@@H](C(C)C)C(=O)N1C (stereo partly drawn) : call = ?
**Result** inactive

**Query** Tell me the recorded outcome of this test for O=C1CC2(CCC(O)(c3cccc4ccccc34)C(C(=O)c3cccc4ccccc34)C2)C(=O)c2ccccc2N1 (stereo not drawn) .
**Result** inactive

**Query** Hello, I am checking results. What call was entered for Cc1cc2nc3c(C#N)c4c(c(Nc5ccc(Cl)cc5)n3c2cc1C)CCC4 ?
**Result** inactive

**Query** // param item: CCOC(=O)C(C/C=C/CO)N(C)C(=O)OC(C)(C)C (stereo not drawn) ; yields the recorded call
**Result** inactive

**Query** Identify the outcome logged in this assay for the compound shown: C=C1C(=O)OC2C1C(OC(=O)/C(C)=C/C)CC(O)(CCl)C1C(O)C=C(C)C21O (stereo not drawn)
**Result** inactive

**Query** Which outcome did this test record for the compound CCOC(=O)C1=[N+]([O-])OC2=C(O)CCCC21 (stereo not drawn) ?
**Result** inactive

**Query** What call does the record list for N#CC[C@@H](O)COc1ccccc1 ?
**Result** inactive

###

- Tested on: OVCAR-3
- test: NCI tumour cell line growth inhibition, 48 h
The source made the active and inactive calls. No stated cut-off is given here; in the data, active = GI50 up to about 1.1 µM and inactive = higher.
# GI50 listing for each entry below

Study these solved cases before continuing.
# molecule, GI50
data = [
    ("CCC1(C)C=Cc2c(cc(OC)c3c(=O)c4ccccc4n(C)c23)O1 (stereo unspecified)", "9.55 µM (inactive)"),
    ("N#C/C(=C1/c2cc([N+](=O)[O-])ccc2-c2c1cc([N+](=O)[O-])cc2[N+](=O)[O-])N1CCCCC1", "> 100 µM (inactive)"),
    ("COc1cccc(-c2nc(-c3cnccn3)n(Cc3ccccc3)n2)c1", "> 100 µM (inactive)"),
]

Notebook: CCOC(=O)CCc1c(C)c2c(OC)cc(OC)cc2oc1=O , GI50 read as > 100 µM (inactive)

Measured GI50, COc1ccc(C(SCCO)(c2ccccc2)c2ccc(OC)cc2)cc1 : 16.3 µM (inactive)

C=C1C(=O)OC2C1C(OC(=O)/C(C)=C/C)CC(O)(CCl)C1C(O)C=C(C)C21O (stereo unspecified) yielded GI50 of 11.9 µM (inactive)

Quick note, GI50 for CCCCC(=O)/C=c1/cc(C)[nH]c2cccc3cnn1c32 landed at > 100 µM (inactive)

Documented GI50 of COc1ccc(N2C(=O)[C@@H]3[C@H](C2=O)c2[nH]c4ccccc4c2C2CCC(C(C)(C)C)C[C@@H]23)cc1 (stereo partly specified) : 21.5 µM (inactive)

Looking up CN(C)CC/C(=N\Nc1ccc(Cl)c(Cl)c1)c1ccccc1 , I see its GI50 listed as 2.8 µM (inactive)

The reported value for OC1C2CN3CCN(C2)CC1(c1ccccc1)C3 (stereo unspecified) in terms of GI50 is > 100 µM (inactive)

For this molecule ( CC(CN1CCN(CC(C)Nc2ccnc3cc(Cl)ccc23)CC1)Nc1ccnc2cc(Cl)ccc12 (stereo unspecified) ), measured GI50 is 22.8 µM (inactive)

GI50 reported for this molecule Oc1cn(-c2ccc(Cl)cc2)nc1-c1nnc(-c2ccccc2)o1 : 0.404 µM (active)

The measured GI50 associated with CCCCCCCCCCCCCCCCCc1nc(Cl)nc(Cl)c1Cl reads > 100 µM (inactive)

Sure, the documented GI50 for CN(c1ccc(Cl)cc1)S(=O)(=O)c1ccc([N+](=O)[O-])cc1 is > 100 µM (inactive)

So, NC(=S)NNC(=O)CCC(=O)Nc1ccc(Cl)cc1Cl ? Its GI50 was > 100 µM (inactive)

Lab book: GI50 of O=C(CC1Sc2ccccc2NC1=O)Nc1ccc(Cl)cc1 (stereo unspecified) noted as > 100 µM (inactive)

Form: molecule = COc1ccc(N2C(=O)C(Cl)C2c2cc3cc(Br)ccc3nc2Cl)cc1 (stereo unspecified) ; GI50 = 8.45 µM (inactive)

Entry COC(=O)CCC(NC(=S)N/N=C(\C)c1nccs1)C(=O)OC (stereo unspecified) — recorded GI50 = 31.3 µM (inactive)

The reported value for NCC(=O)N[C@H]1c2ccsc2/C(=N/O)[C@H]1O in terms of GI50 is > 100 µM (inactive)

Looking up CCOC(=O)C1(C#N)C(c2ccccc2)CC(O)(c2ccc(Cl)cc2)C(C(=O)c2ccc(Cl)cc2)C1c1ccccc1 (stereo unspecified) , I found its GI50 recorded as > 100 µM (inactive)

The molecule identified as CC(C)(C)c1ccc(C(C)(C)C)c(N2C(=O)C3ON=C(c4ccc([N+](=O)[O-])cc4)C3C2=O)c1 (stereo unspecified) registered its GI50 at 10.5 µM (inactive)
